target: hT2R13 (Homo sapiens (Human)); assay: hT2R panel inhibition, transient HEK293 G16g44, agonist Oxyphenonium 1 mM; format: cell-based; settings: HEK293, compound at 25 μM; receptor activated to EC80 with agonist; read-out: inhibition of bitter receptor 13
Sequence (Q9NYV9 whole entry): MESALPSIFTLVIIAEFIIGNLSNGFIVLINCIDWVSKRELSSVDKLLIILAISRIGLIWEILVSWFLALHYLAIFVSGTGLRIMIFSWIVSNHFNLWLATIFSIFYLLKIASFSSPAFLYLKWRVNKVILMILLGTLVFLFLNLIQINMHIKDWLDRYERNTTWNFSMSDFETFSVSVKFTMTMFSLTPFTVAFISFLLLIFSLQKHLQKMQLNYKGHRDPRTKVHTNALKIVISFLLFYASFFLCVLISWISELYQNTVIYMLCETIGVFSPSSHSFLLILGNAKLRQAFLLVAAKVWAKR
Observed property: inhibition at 25 µM

INSERT INTO results (query_smiles, experimental_system, observed_property, result) VALUES
  ('Cn1c(=O)c(=O)n(C)c2cc(S(=O)(=O)Nc3ccc4c(c3)OCCO4)ccc21', 'hT2R13 (Homo sapiens (Human))', 'inhibition at 25 µM', '20 to 40%'),
  ('Cc1cc2c(cc1S(=O)(=O)Nc1ccc(F)cc1)n(C)c(=O)c(=O)n2C', 'hT2R13 (Homo sapiens (Human))', 'inhibition at 25 µM', '40 to 60%'),
  ('CCCOc1ccc(CN(Cc2ccccc2)S(=O)(=O)c2ccc(C(=O)O)cc2)cc1', 'hT2R13 (Homo sapiens (Human))', 'inhibition at 25 µM', '20 to 40%'),
  ('CC(C)Oc1ccc(CN(Cc2ccccc2)S(=O)(=O)c2ccc(C(=O)O)cc2)cc1', 'hT2R13 (Homo sapiens (Human))', 'inhibition at 25 µM', '20 to 40%'),
  ('Cn1c(=O)c(=O)n(C)c2cc(S(=O)(=O)Nc3ccc(Cc4ccccn4)cc3)ccc21', 'hT2R13 (Homo sapiens (Human))', 'inhibition at 25 µM', '> 80%'),
  ('CCN(C(=O)CN(C)S(=O)(=O)c1ccc2c(c1)n(C)c(=O)c(=O)n2C)c1cccc(C)c1', 'hT2R13 (Homo sapiens (Human))', 'inhibition at 25 µM', '40 to 60%');

###

target: hT2R10 (Homo sapiens (Human), UniProt Q9NYW0); assay: hT2R panel inhibition, transient HEK293 G16g44, agonist Strychnine 50 μM; type: cell-based; conditions: HEK293, read-out: screening result against bitter receptor 10, compound at 25 μM; receptor activated to EC80 with the corresponding agonist
Sequence (Q9NYW0 whole entry): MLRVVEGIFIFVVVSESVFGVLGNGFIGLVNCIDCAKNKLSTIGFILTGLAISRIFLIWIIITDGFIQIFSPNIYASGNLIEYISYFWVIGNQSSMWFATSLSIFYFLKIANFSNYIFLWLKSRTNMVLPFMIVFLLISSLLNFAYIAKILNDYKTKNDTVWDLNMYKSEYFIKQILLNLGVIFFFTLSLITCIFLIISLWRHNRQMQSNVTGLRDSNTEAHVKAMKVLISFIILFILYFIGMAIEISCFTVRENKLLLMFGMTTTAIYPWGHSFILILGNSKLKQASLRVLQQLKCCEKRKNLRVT
Quick reference: inhibition at 25 µM of the listed items.
Observed property: inhibition at 25 µM

INSERT INTO assay_data (query_smiles, observed_property, result) VALUES
  ('CCOc1ccc(CN(Cc2ccco2)S(=O)(=O)c2ccc(C(=O)O)cc2)cc1', 'inhibition at 25 µM', '40 to 60%'),
  ('COc1ccc(CN(Cc2ccc(F)c(F)c2)S(=O)(=O)c2ccc(C(=O)O)cc2)cc1', 'inhibition at 25 µM', '20 to 40%'),
  ('O=C(O)c1ccc(S(=O)(=O)N(Cc2ccccc2)Cc2cccc(Cl)c2)cc1', 'inhibition at 25 µM', '20 to 40%'),
  ('O=C(O)c1ccc(CN(Cc2ccccc2F)S(=O)(=O)c2ccccc2)cc1', 'inhibition at 25 µM', '20 to 40%'),
  ('O=C(O)c1ccc(S(=O)(=O)N(Cc2ccccc2)Cc2ccccc2F)cc1', 'inhibition at 25 µM', '20 to 40%'),
  ('COc1ccc(CN(c2ccccc2)S(=O)(=O)c2ccc(C(=O)O)cc2)cc1', 'inhibition at 25 µM', '> 80%'),
  ('N#Cc1ccccc1CN(Cc1ccccc1)S(=O)(=O)c1ccc(C(=O)O)cc1', 'inhibition at 25 µM', '20 to 40%'),
  ('O=C(O)c1ccc(CN(Cc2ccccc2)S(=O)(=O)c2ccc(C(=O)O)cc2)cc1', 'inhibition at 25 µM', '60 to 80%'),
  ('COc1cc(OC)c(CN(Cc2ccccc2)S(=O)(=O)c2ccc(C(=O)O)cc2)c(OC)c1', 'inhibition at 25 µM', '40 to 60%');
